System: Plasmodium falciparum
Method Notes: NOVARTIS: Inhibition of Plasmodium falciparum 3D7 (drug-susceptible) proliferation in erythrocyte-based infection assay
Assay type: functional, organism-based
Measurement Parameters: Plasmodium falciparum, 3D7
Exercise: for every item that follows, state its recorded EC50.

Query :: Quick one: give measured EC50 for `CCc1ccc(-n2nnc(C(=O)Nc3ccccc3Cl)c2C)cc1`
Result :: > 1680 nM

Query :: Quick one: give measured EC50 for CCC1=NN2C(=N)/C(=C/c3cn(CCOc4ccccc4C(C)CC)c4ccccc34)C(=O)N=C2S1 (stereo not drawn)
Result :: > 1250 nM

Query :: Quick one: give measured EC50 for `Clc1ccccc1Nc1nc2nonc2nc1Nc1cccc(Br)c1`
Result :: > 1250 nM
